study-target: Torsin-1A-interacting protein 2 (Homo sapiens)
assay-method-text: LULL1 binders on small-molecule microarray, primary screen, cell lysate, human LULL1 lysate, 635/667 nm fluorescence (AID 1092);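 note: probe is lysate of COS7 cells overexpressing human LULL1; score merges per-feature 667 nm fluorescence with signal-to-noise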
condition-context: hLULL1 lysate binding, 635 nm fluorescence, higher = more signal
For each of the molecules below, state its composite z-score.

Task item: Report measured composite z-score; entry is C=CCC1=C[C@H]2[C@H]([C@@H]3C=C[C@]2(CC=C)C(=O)[C@]32CO2)[C@@]2(CO2)C1=O
Reply: 0.756

Task item: Report measured composite z-score; entry is CCOC(=O)C[C@H]1[C@H](OC(=O)c2ccccc2-c2ccccc2)[C@@H](NC(=O)c2ccc(-c3ccccc3)cc2)c2cc(OCCCO)ccc2N1C(=O)Cc1ccc(OC)cc1
Reply: 0.775

Task item: Report measured composite z-score; entry is O=C(NCc1ccccc1)c1ccc(Br)cc1[N+](=O)[O-]
Reply: 0.715

Task item: Report measured composite z-score; entry is CCCC/C=C/[C@H]([C@@H](O)Cc1ccccc1)N(CC#Cc1ccccc1)Cc1ccccc1Br
Reply: -0.0817

Task item: Report measured composite z-score; entry is CC(C)(C)OC(=O)CC[C@@]1(C(=O)NCc2ccccc2)N=C(c2ccc(OCCCO)cc2)O[C@@H]1c1ccccc1
Reply: 3.54

Task item: Report measured composite z-score; entry is O=C1C2C=CC(C(O)Cc3ccccc3)N(Nc3ccc([N+](=O)[O-])cc3)C2C(=O)N1c1ccccc1 (configuration not stated)
Reply: 2.92

Task item: Report measured composite z-score; entry is C=CCC(OC(C)=O)[C@@H]1[C@@H](N(Cc2cc3ccccc3o2)C(=O)Cc2ccc(F)cc2)c2cc(OCCCO)ccc2N1C(=O)c1ccc(-c2ccccc2)cc1 (some centres not stated)
Reply: 0.292

---

assay-method-text: small-molecule microarray binders of probe aXIP, primary screen, biochemical, NeuroSMM set, 635/667 nm fluorescence (AID 1119);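 note: probe is the protein aXip251-270 applied at 1 µg/mL to compound-printed slides; binding of probe to printed compounds measured as 667 nm fluorescence plus signal to noise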
condition-context: higher = more signal, called active from +8 up or from −8 down
For each of the compounds below, state its composite Z-score.
Output: the number by itself.

Task item: Report measured composite Z-score; entry is COc1cc2c(cc1OC)CN(C(=O)[C@@H]1[C@H]3C(=O)O[C@H](c4ccccc4)[C@H](c4ccccc4)N3[C@H](c3ccccc3OCCO)[C@@]13C(=O)Nc1ccccc13)CC2
Reply: -0.316

Task item: Report measured composite Z-score; entry is C=CCC(OC(C)=O)[C@@H]1[C@@H](N(Cc2ccc(-c3ccccc3)cc2)C(=O)c2ccc(C)cc2)c2cc(OCCCO)ccc2N1C(=O)c1ccc(-c2ccccc2)cc1 (stereo partly drawn)
Reply: 0.451

Task item: Report measured composite Z-score; entry is COC(=O)Cn1c(C(=O)N2CCCC2)cc2c1C[C@H]1CN(C(=O)c3ccccc3)[C@@](Cc3ccccc3)(C(=O)OC)[C@@H]21
Reply: 0.0529

Task item: Report measured composite Z-score; entry is O=C(NCC(O)CO)[C@]1(Cc2ccccc2)N=C(c2ccc(OCCCO)cc2)O[C@@H]1c1ccccc1 (stereo partly drawn)
Reply: 0.749

Task item: Report measured composite Z-score; entry is COC(=O)[C@H]1[C@@H]2COc3ccccc3[C@H]2N[C@H]1C(=O)OC
Reply: 0.0807

Task item: Report measured composite Z-score; entry is COCCOC(=O)N1C(=O)[C@@]2(c3cc(C#CCNC(N)=O)ccc31)[C@H](c1ccc(OCCO)cc1)N1[C@H](c3ccccc3)[C@H](c3ccccc3)OC(=O)[C@H]1[C@@H]2C(=O)N1CCCCCCC1
Reply: -0.333

Task item: Report measured composite Z-score; entry is Cc1ccc(S[C@]2(C(=O)NC3CC3)CC(=O)N(Cc3cc(C(F)(F)F)cc(C(F)(F)F)c3)[C@@H]2c2ccc(CO)cc2)cc1
Reply: -0.421

Task item: Report measured composite Z-score; entry is CN1C(=O)C2C=CC(C(O)c3ccc(N(C)C)cc3)N(Nc3ccc([N+](=O)[O-])cc3[N+](=O)[O-])C2C1=O (stereo not drawn)
Reply: -0.399

Task item: Report measured composite Z-score; entry is COc1ccc(C(O)C2C=CC3C(=O)N(C)C(=O)C3N2N2CCCCC2)cc1OCc1ccccc1 (stereo not drawn)
Reply: 0.248

Task item: Report measured composite Z-score; entry is O=C(CS)NCCCCCNC(=O)[C@H]1C[C@H]2C(=O)N[C@@H](Cc3ccccc3)C(=O)N2[C@H]1c1ccc(O)cc1
Reply: -0.65

Task item: Report measured composite Z-score; entry is CC[C@H]1C2=C3C(CC[C@H]4C(OC)OC[C@](C)([C@@H]34)N(C(=O)OC(C)(C)C)C2)C(CO)C1CO (stereo partly drawn)
Reply: 0.067

Task item: Report measured composite Z-score; entry is C=C(CCCC)/C(=C/C[C@@H](OC(=O)c1ccncc1)c1cccc(OCCO)c1)c1cc(C(=O)OC)ccc1OC
Reply: -0.259

Task item: Report measured composite Z-score; entry is CC(C)N1CC=CC23O[C@@H]4/C=C\CCCOC(=O)C4[C@H]2C(=O)N(CCCCCO)[C@@H]3C1=O (stereo partly drawn)
Reply: -0.0102

---

assay-method-text: binders of probe aHhip on microarray, primary screen, stem cell growth factor project, biochemical, small-molecule microarray, fluorescence 635/667 (AID 1087);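 note: score merges spot fluorescence at 667nm with spot signal to noise ratio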
condition-context: higher = more signal
test-readout: composite z-score
Output: the number by itself.

Task item: Report measured composite z-score; entry is CC1CC/C=C\[C@H]2OC34C=CCN(Cn5nnc6ccccc65)C(=O)[C@H]3N(C(C)CO)C(=O)[C@@H]4C2C(=O)O1 (some centres undefined)
Reply: 0.0373

Task item: Report measured composite z-score; entry is CC(C)CN1C(=O)[C@@]2(Cc3ccccc31)c1ccccc1C(=O)N(C1CCCCC1)[C@H]2c1ccc(CO)cc1
Reply: -0.226

Task item: Report measured composite z-score; entry is COC(=O)C1=CC(c2ccc(CO)cc2)=CC(c2cccs2)N(Cc2cccc(OC(F)(F)F)c2)C=C1C(=O)OC (centres undefined)
Reply: 0.0866

Task item: Report measured composite z-score; entry is CCCCCCc1nc(-c2cc(C)c(OC)c(C)c2)cc2c1[Si](C(C)C)(C(C)C)O[C@H]2c1ccccc1
Reply: 0.0505

---

study-target: Fibroblast growth factor 10 (Homo sapiens) (UniProt O15520)
Sequence (O15520 whole entry, looked up): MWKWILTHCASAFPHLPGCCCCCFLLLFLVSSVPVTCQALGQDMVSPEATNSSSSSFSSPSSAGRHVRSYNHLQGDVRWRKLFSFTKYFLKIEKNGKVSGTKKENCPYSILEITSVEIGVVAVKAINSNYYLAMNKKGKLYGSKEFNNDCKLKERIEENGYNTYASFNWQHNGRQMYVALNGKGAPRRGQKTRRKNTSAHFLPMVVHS
assay-method-text: FGF10 binders on small-molecule microarrays, primary screen, biochemical, small-molecule microarray, 635 nm fluorescence (AID 1102)
condition-context: FGF10 binding, fluorescence 635 nm, higher = more signal
Short version: composite z-score at least 0.5 is Fulfilled, less is Not fulfilled.

Task item: Form field: composite z-score at least 0.5? Entry: O=C1C2C=CC(C(O)c3ccccc3)N(n3cnnc3)C2C(=O)N1Cc1ccccc1 (stereo not given)
Reply: Not fulfilled

Task item: Form field: composite z-score at least 0.5? Entry: C=CCC(OC(C)=O)[C@@H]1[C@@H](N(Cc2cc3ccccc3o2)C(=O)Cc2ccc(F)cc2)c2cc(OCCCO)ccc2N1C(=O)c1ccc(-c2ccccc2)cc1 (stereo not given in full)
Reply: Not fulfilled

Task item: Form field: composite z-score at least 0.5? Entry: CO[C@@H]1COC(=O)CC=C[C@@H](C)[C@H](OC)COC(=O)CC=C[C@H]1C
Reply: Not fulfilled

Task item: Form field: composite z-score at least 0.5? Entry: CO[C@@H]1COC(=O)[C@H](C)NC(=O)CC=C[C@@H](C)[C@H](OC)COC(=O)[C@H](C)NC(=O)CC=C[C@H]1C
Reply: Not fulfilled

Task item: Form field: composite z-score at least 0.5? Entry: C=CCN1C(=O)[C@@]2(Cc3ccccc3)N=C(c3ccc(OCCCO)cc3)O[C@H]2c2ccccc21
Reply: Fulfilled

Task item: Form field: composite z-score at least 0.5? Entry: CO[C@H]1COC(=O)[C@@H](C)NC(=O)CC=C[C@@H](C)[C@H](OC)COC(=O)CC=C[C@@H]1C
Reply: Fulfilled

Task item: Form field: composite z-score at least 0.5? Entry: C[C@@H]1NC(=O)CC=C[C@@H](C)[C@@H]2C=C[C@H](O)[C@@H](COC(=O)[C@H](C)NC(=O)CC=C[C@@H](C)[C@@H]3C=C[C@H](O)[C@@H](COC1=O)O3)O2
Reply: Fulfilled

Task item: Form field: composite z-score at least 0.5? Entry: Cc1ccc(S[C@]2(C(=O)O)CC(=O)N(Cc3ccccc3)[C@@H]2c2ccc(CO)cc2)cc1
Reply: Not fulfilled

Task item: Form field: composite z-score at least 0.5? Entry: O=C1C[C@@](C(=O)NC2CC2)(c2ccc([N+](=O)[O-])cc2)[C@@H](c2ccc(CO)cc2I)N1CC12CC3CC(CC(C3)C1)C2
Reply: Fulfilled

Task item: Form field: composite z-score at least 0.5? Entry: C=C(CCCC)C(=O)CC[C@@H](OC(C)=O)c1ccccc1OCCO
Reply: Not fulfilled

Task item: Form field: composite z-score at least 0.5? Entry: CC(=O)NCCCC[C@@H]1NC(=O)[C@@H]2C[C@H](C(=O)NCCCCCNC(=O)CS)[C@H](c3ccc(O)cc3)N2C1=O
Reply: Not fulfilled

Task item: Form field: composite z-score at least 0.5? Entry: COCCCNC(=O)[C@@]1(Sc2ccc(C)cc2)CC(=O)N(Cc2cc(C(F)(F)F)cc(C(F)(F)F)c2)[C@@H]1c1ccc(CO)cc1I
Reply: Not fulfilled

Task item: Form field: composite z-score at least 0.5? Entry: CCN1C(C)=C(C(=O)OC)[C@@H](c2ccccc2)N2C(=O)[C@](O)(C(=O)OC)[C@@H](c3ccccc3)C(C(C)=O)=C12
Reply: Fulfilled

Task item: Form field: composite z-score at least 0.5? Entry: CCN1C(C)=C(C(=O)OC)[C@@H](c2ccccc2)N2C(=O)[C@@]3(C(=O)OC)O[C@@]12[C@@H]1C(=O)CCC[C@@H]13
Reply: Fulfilled

Task item: Form field: composite z-score at least 0.5? Entry: COC(=O)C1=CC(c2ccc(CO)cc2)=CC(C2CC2)N(Cc2sc3ccccc3c2Cl)C=C1C(=O)OC (stereo not given)
Reply: Fulfilled

Measured values drawn from PubChem BioAssay for this set.
